// reported pIC50 for each item listed
target: H1047R PIK3CA enzyme (Homo sapiens, UniProt P42336, H1047R); test: ADP-Glo Biochemical PIK3CA Kinase Assay
Sequence (P42336 whole entry H1047R): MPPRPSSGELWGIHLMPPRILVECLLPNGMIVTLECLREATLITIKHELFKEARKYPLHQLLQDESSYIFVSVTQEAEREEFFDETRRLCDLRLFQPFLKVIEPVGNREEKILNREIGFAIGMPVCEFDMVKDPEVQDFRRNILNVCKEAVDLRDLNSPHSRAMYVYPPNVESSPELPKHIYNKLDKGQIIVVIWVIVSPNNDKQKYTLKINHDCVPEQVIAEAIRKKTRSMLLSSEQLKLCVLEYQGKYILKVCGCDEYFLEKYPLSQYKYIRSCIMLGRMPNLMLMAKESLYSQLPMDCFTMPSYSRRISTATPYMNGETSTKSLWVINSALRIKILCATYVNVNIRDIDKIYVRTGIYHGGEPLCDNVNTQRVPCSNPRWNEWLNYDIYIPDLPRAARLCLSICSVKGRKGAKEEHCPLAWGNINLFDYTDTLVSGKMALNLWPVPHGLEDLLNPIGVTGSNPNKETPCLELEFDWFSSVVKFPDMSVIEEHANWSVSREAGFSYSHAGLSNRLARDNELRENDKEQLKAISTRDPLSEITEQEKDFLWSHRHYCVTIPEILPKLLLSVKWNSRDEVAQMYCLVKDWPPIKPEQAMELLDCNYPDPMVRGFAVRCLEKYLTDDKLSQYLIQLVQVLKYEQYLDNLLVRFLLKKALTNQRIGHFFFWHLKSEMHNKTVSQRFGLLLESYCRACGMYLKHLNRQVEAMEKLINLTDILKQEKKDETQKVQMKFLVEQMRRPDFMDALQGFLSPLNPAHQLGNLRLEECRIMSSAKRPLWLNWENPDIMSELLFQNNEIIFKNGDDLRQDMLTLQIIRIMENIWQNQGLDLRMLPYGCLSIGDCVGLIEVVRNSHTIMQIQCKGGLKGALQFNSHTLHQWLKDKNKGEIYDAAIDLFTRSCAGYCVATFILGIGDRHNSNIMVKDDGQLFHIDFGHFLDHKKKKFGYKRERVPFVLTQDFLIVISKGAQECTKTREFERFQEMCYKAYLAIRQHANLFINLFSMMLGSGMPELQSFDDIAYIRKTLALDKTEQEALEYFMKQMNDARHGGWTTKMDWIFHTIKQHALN
Sequence (P27986 whole entry partner): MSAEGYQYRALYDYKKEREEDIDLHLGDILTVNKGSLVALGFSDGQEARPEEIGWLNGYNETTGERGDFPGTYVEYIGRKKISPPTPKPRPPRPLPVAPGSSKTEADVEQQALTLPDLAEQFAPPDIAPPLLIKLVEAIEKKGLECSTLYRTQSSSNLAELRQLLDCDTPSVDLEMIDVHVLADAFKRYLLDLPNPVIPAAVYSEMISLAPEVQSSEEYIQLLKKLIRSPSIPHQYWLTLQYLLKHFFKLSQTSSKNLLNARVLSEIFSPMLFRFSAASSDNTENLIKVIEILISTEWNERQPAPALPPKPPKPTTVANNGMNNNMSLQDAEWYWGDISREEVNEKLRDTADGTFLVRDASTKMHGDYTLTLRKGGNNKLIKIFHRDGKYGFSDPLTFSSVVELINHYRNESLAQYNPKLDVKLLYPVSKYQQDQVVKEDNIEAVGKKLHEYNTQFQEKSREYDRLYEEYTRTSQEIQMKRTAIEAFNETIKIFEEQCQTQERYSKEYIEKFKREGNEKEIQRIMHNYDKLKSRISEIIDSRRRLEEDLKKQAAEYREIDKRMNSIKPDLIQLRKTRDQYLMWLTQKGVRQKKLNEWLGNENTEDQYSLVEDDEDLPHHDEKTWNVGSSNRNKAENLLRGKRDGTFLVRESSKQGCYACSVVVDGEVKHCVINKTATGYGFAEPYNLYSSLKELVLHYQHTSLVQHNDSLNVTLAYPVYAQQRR
pIC50: −log10 of the molar value.

COMPOUND | pIC50
O=C1N[C@@H](c2cc(F)ccc2Cl)c2c(N[C@@H]3CCOc4ccccc43)cc(Br)cc21 (racemic) | 4.00 to 5.00
Cn1cc(Nc2cc(NC(=O)c3cc(F)cc(C(F)(F)F)c3)c3c(c2)C(=O)NC3c2cc(F)ccc2Cl)nn1 (stereo not shown) | ≥ 7.00
O=C(Nc1ccnc2c1C(c1ccccc1Cl)NC2=O)c1ccnc2c1CCC2 (stereo not shown) | 4.00 to 5.00
O=C(Nc1cc(CC2(CO)COC2)cc2c1C(c1cc(F)ccc1Cl)NC2=O)c1cc(F)cc(C(F)(F)F)c1 (stereo not shown) | ≥ 7.00

====

molecular target: H1047R PIK3CA enzyme (Homo sapiens, UniProt P42336, H1047R); assay: ADP-Glo Biochemical PIK3CA Kinase Assay
pIC50: −log10 of the molar value.
// reported pIC50 for each item listed

COMPOUND | pIC50
CC(C)(CN)n1cc(-c2cc(NC(=O)N3C[C@](O)(C(F)(F)F)c4cc(F)ccc43)c3c(c2)C(=O)N[C@H]3c2cc(F)ccc2Cl)cn1 (single isomer, unassigned) | 5.00 to 6.00
O=C(Nc1cc(N2CC(F)C2)nc2c1C(c1cc(F)ccc1Cl)NC2=O)c1cc(F)cc(C(F)(F)F)c1 (centres unmarked) | ≥ 7.00
O=C(Nc1cc(-c2ccc3ncnn3c2)nc2c1C(C1CCOCC1)NC2=O)c1cc(F)cc(C(F)(F)F)c1 (centres unmarked) | 4.00 to 5.00
O=C(Nc1cc(Br)cc2c1C(c1cc(F)c(F)cc1Cl)NC2=O)c1cc(F)cc(C(F)(F)F)c1 (centres unmarked) | ≥ 7.00
O=C(Nc1cc(-c2cnc3ccccc3n2)cc2c1C(c1cc(F)ccc1Cl)NC2=O)c1cc(F)cc(C(F)(F)F)c1 (centres unmarked) | ≥ 7.00
O=C(Nc1cc(NC2=NC[C@@H](C(F)(F)F)O2)cc2c1[C@H](c1cc(F)ccc1Cl)NC2=O)c1cc(F)cc(C(F)(F)F)c1 (single isomer, unassigned) | ≥ 7.00
O=C1N[C@@H](c2cc(F)ccc2Cl)c2c(NC(=O)N3C[C@](O)(C(F)(F)F)c4cc(F)ccc43)cc(Cl)nc21 (single isomer, unassigned) | ≥ 7.00
Cn1cc(Br)c(C(=O)Nc2cccc3c2C(c2cc(F)ccc2Cl)NC3=O)n1 (centres unmarked) | 4.00 to 5.00
N#CCOc1cc(-c2ccc3ncnn3c2)cc2c1C(c1cc(F)ccc1Cl)NC2=O (centres unmarked) | 4.00 to 5.00
O=C1N[C@@H](c2cc(F)ccc2Cl)c2c(N[C@H]3CCOc4ccccc43)cc(Br)cc21 (racemic) | 4.00 to 5.00
O=C1N[C@H](c2cc(F)ccc2Cl)c2c(NC(=O)[C@@H]3C[C@@H](O)C[C@H](C(F)(F)F)C3)cccc21 (single isomer, unassigned) | 4.00 to 5.00

====

Target: H1047R PIK3CA enzyme (Homo sapiens, UniProt P42336, H1047R)
Assay: ADP-Glo Biochemical PIK3CA Kinase Assay
Protocol: Compounds to be assayed were plated in 16 doses of 1:2 serial dilutions (20 nL volume each well) on a 1536-well plate, and the plate warmed to room temperature. […] To the well was added 1 μL of 200 μM ATP and 20 μM of diC8-PIP2 in Substrate Assay Buffer (50 mM HEPES pH7.4, 50 mM NaCl, 5 mM DTT and 0.03% CHAPS) to start the reaction, and the plate was shaken for 10 seconds, then spun briefly at 1500 rpm, and then incubated for 60 minutes at room temperature. […]
// reported IC50 for each item listed

MOLECULE | IC50
CC(C)(O)c1cnc2ccc(-c3cc(NC(=O)c4cc(F)cc(C(F)(F)F)c4)c4c(c3)C(=O)N[C@H]4c3cc(F)ccc3Cl)cc2c1 [Compound I-1604] | ≤ 100 nM
CC(=O)N[C@H]1CCC[C@H](C(=O)Nc2cc(-c3ccc4ncnn4c3)cc3c2C(c2cc(F)ccc2Cl)NC3=O)C1 (mixture of isomers) [Compound I-1843] | 10000 to 100000 nM
O=C1N[C@@H](c2cc(F)ccc2Cl)c2c(NC(=O)N3C[C@@](O)(C(F)(F)F)c4cc(F)ccc43)ccc(Cl)c21 (single isomer, unassigned) [Compound I-2621] | 500 to 1000 nM
O=C(Nc1ccccc1)Nc1cc(Br)cc2c1[C@@H](c1cc(F)ccc1Cl)NC2=O (stereo in doubt) [Compound I-1946] | 1000 to 10000 nM
O=C1NC(c2cc(F)c(F)cc2C(F)F)c2c(NC(=O)c3nsc4ccc(F)cc34)cccc21 (stereo not shown) [Compound I-332] | ≤ 100 nM
Nc1cc(NC(=O)c2cc(F)cc(C(F)(F)F)c2)c2c(c1)C(=O)NC2c1cccc(F)c1 (stereo not shown) [Compound I-2320] | 500 to 1000 nM
O=C1NC(c2cc(F)ccc2Cl)c2c(NC(=O)c3cccc4cccnc34)cc(Br)cc21 (stereo not shown) [Compound I-602] | 1000 to 10000 nM
O=C1N[C@@H](c2cc(F)ccc2Cl)c2c(NC(=O)N3C[C@H](CO)[C@@H](C(F)(F)F)C3)cccc21 (single isomer, unassigned) [Compound I-2279] | 10000 to 100000 nM
O=C(Nc1cc(-n2ccc3ncccc3c2=O)cc2c1C(c1cc(F)ccc1Cl)NC2=O)c1cc(F)cc(C(F)(F)F)c1 (stereo not shown) [Compound I-1250] | ≤ 100 nM
O=C(Nc1cc(-c2ccc3nnc(Cl)n3c2)cc2c1[C@@H](c1cc(F)ccc1Cl)NC2=O)c1cc(F)cc(C(F)(F)F)c1 [Compound I-1676] | 100 to 500 nM
N#C[C@H]1C[C@@H](Oc2cc(NC(=O)c3cc(F)cc(C(F)(F)F)c3)c3c(c2)C(=O)N[C@H]3c2cc(F)ccc2Cl)C1 [Compound I-1334] | ≤ 100 nM
O=C1NC(c2cc(F)ccc2Cl)c2c(Br)cc(-c3ccc4ncnn4c3)cc21 (stereo not shown) [Compound I-1672] | 10000 to 100000 nM
Cc1ccccc1C1NC(=O)c2c(N)ncc(NC(=O)c3cc(F)cc(C(F)(F)F)c3)c21 (stereo not shown) [Compound I-262] | 100 to 500 nM
CNC(=O)c1cc(NC(=O)c2csc3ccccc23)c2c(c1)C(=O)N[C@@H]2c1ccccc1C [Compound I-75] | 1000 to 10000 nM
CN1CCCC[C@H]1[C@@H]1NC(=O)c2cccc(NC(=O)c3cc(F)cc(C(F)(F)F)c3)c21 (racemic) [Compound I-1733] | 10000 to 100000 nM
O=C1NC(c2cc(F)ccc2Cl)c2c(NC(=O)c3csc4cocc34)cccc21 (stereo not shown) [Compound I-2301] | 10000 to 100000 nM
[2H]c1nc2ccc(-c3cc(NC(=O)c4cc(F)cc(C(F)(F)F)c4)c4c(c3)C(=O)N[C@@H]4c3cc(F)ccc3Cl)cn2n1 (stereo in doubt) [Compound I-1786] | 100 to 500 nM
O=C1N[C@H](c2cc(F)ccc2Cl)c2c(NC(=O)N3C[C@H](O)c4cc(F)c(F)cc43)cccc21 (single isomer, unassigned) [Compound I-2294] | 10000 to 100000 nM
O=C(Nc1cc(Br)cc2c1[C@H](c1cc(F)cc(F)c1Cl)NC2=O)c1cc(F)cc(C(F)(F)F)c1 [Compound I-805] | ≤ 100 nM

====

// reported IC50 for each item listed
target: H1047R PIK3CA enzyme (Homo sapiens, UniProt P42336, H1047R); assay: ADP-Glo Biochemical PIK3CA Kinase Assay
REPORTED_METRIC: IC50

COMPOUND | MEASURED_RESULT
O=C(Nc1cc(-c2ccn[nH]2)cc2c1[C@H](c1cc(F)ccc1Cl)NC2=O)c1cc(F)cc(C(F)(F)F)c1 | ≤ 100 nM
CC(=O)N1CC(c2cc(NC(=O)c3cc(F)cc(C(F)(F)F)c3)c3c(c2)C(=O)NC3c2cc(F)ccc2Cl)C1 (stereo not shown) | ≤ 100 nM
O=C1C[C@@H](c2cc(NC(=O)c3cc(F)cc(C(F)(F)F)c3)c3c(c2)C(=O)N[C@@H]3c2cc(F)ccc2Cl)CN1 (single isomer, unassigned) | 1000 to 10000 nM
O=C(Nc1cc(-c2ccc3nccn3n2)cc2c1[C@@H](c1cc(F)ccc1Cl)NC2=O)c1cc(F)cc(C(F)(F)F)c1 | 1000 to 10000 nM
CP(C)(=O)Cc1cc(NC(=O)c2cc(F)cc(C(F)(F)F)c2)c2c(c1)C(=O)NC2c1cc(F)ccc1Cl (stereo not shown) | ≤ 100 nM
O=C(Nc1cc(-c2ccnc3ccccc23)cc2c1C(c1cc(F)ccc1Cl)NC2=O)c1cc(F)cc(C(F)(F)F)c1 (stereo not shown) | ≤ 100 nM
O=C(Nc1cc(-c2ccc3nccnc3c2)cc2c1C(c1cc(F)ccc1Cl)NC2=O)c1cc(F)cc(C(F)(F)F)c1 (stereo not shown) | ≤ 100 nM
O=C(Nc1cccc2c(=O)[nH]n(-c3cc(F)ccc3Cl)c12)c1cc(F)cc(C(F)(F)F)c1 | 1000 to 10000 nM
O=C(Nc1cc(-c2cnn(-c3ncccn3)c2)cc2c1C(c1cc(F)ccc1Cl)NC2=O)c1cc(F)cc(C(F)(F)F)c1 (single isomer, unassigned) [Compound I-1555] | ≤ 100 nM
Cc1ccccc1C1NC(=O)c2c(-c3cnn(C)c3)ncc(NC(=O)c3cc(F)cc(C(F)(F)F)c3)c21 (stereo not shown) | 100 to 500 nM
